- System: SK-OV-3
- Assay notes: Antiproliferative activity against SKOV3 cells by XTT assay after 48 hrs
- Assay type: functional, cell-based
- Experimental conditions: Homo sapiens, SK-OV-3, 48 h
Endpoint: pIC50
The value called pIC50 is obtained by taking minus log10 of the concentration in mol/L.

Line notation: COc1cc(/C=C2/c3ccccc3C(=O)c3ccsc32)cc(OC)c1O
Target system: SK-OV-3
pIC50: 7.15
--
Line notation: COc1ccc(/C=C2/c3ccccc3C(=O)c3ccsc32)c(OC)c1O
Target system: SK-OV-3
pIC50: 7.40

Name the value of pIC50 reported for COc1ccc(COc2c3ccccc3cc3sccc23)cc1 when tested on SK-OV-3. 6.57

---

- System: NCI-H460
- Assay notes: Antiproliferative activity against NCI-H460 cells by XTT assay after 48 hrs
- Assay type: functional, cell-based
- Experimental conditions: Homo sapiens, NCI-H460, 48 h
Collected IC50 values appear next to each entry.
Write down the numeric answer in nM and omit the unit.

Line notation: COc1ccc(/C=C2/c3ccccc3C(=O)c3ccsc32)c(OC)c1O
Result units: nM
Reported measurement: 280

Line notation: COc1cc(/C=C2/c3ccccc3C(=O)c3ccsc32)cc(OC)c1O
Result units: nM
Reported measurement: 50

Consider the additional compound presented here.
Kindly indicate its recorded IC50. Item: COc1ccc(COc2c3ccccc3cc3sccc23)cc1 980

---

Collected Activity values appear next to each entry.
- Assay notes: Cell cycle arrest in KB/HeLa cells by accumulation at G1 phase at 10 nM
- Type: functional, cell-based
- Experimental conditions: Homo sapiens
Write down the numeric answer in % and omit the unit.

Here's what some known entries look like.
Compound: CC(=O)O[C@H]1C(=O)[C@@]2(C)[C@H]([C@H](OC(=O)c3ccccc3)[C@]3(O)C[C@H](OC(=O)[C@H](O)[C@@H](NC(=O)c4ccccc4)c4ccccc4)C(C)=C1C3(C)C)[C@]1(OC(C)=O)CO[C@@H]1C[C@@H]2O [PACLITAXEL]
Result units: %
Activity: 64.8

Compound: COC(=O)Nc1nc2cc(C(=O)c3cccs3)ccc2[nH]1 [NOCODAZOLE]
Result units: %
Activity: 64.2

Consider the additional compound presented here.
Kindly indicate its recorded Activity. Item: CC[C@]1(O)C[C@H]2CN(CCc3c([nH]c4ccccc34)[C@@](C(=O)OC)(c3cc4c(cc3OC)N(C=O)[C@H]3[C@@](O)(C(=O)OC)[C@H](OC(C)=O)[C@]5(CC)C=CCN6CC[C@]43[C@@H]65)C2)C1 [VINCRISTINE] 0.5

---

Collected IC50 values appear next to each entry.
- Target system: Tubulin (Sus scrofa, UniProt P02554+P02550)
- Assay notes: Inhibition of tubulin polymerization in porcine brain

Line notation: COc1ccc(CC(=O)Oc2c3ccccc3cc3sccc23)cc1
IC50: > 10 µM
--
Line notation: COc1ccc(CCOc2c3ccccc3cc3sccc23)cc1
IC50: > 10 µM
--
Line notation: O=C1c2ccccc2/C(=C/c2ccc([N+](=O)[O-])cc2)c2sccc21
IC50: > 10 µM
--
Line notation: COc1cc(COc2c3ccccc3cc3sccc23)cc(OC)c1OC
IC50: > 10 µM

Consider the additional molecule presented here.
Kindly indicate its recorded IC50. Item: COc1ccc(C(=O)Oc2c3ccccc3cc3sccc23)cc1 > 10 µM
